system: ACHN; assay: NCI tumour cell line growth inhibition, 48 h
Activity calls are given as the source filed them. Rule as the data show it: active = GI50 up to about 1.1 µM and inactive = higher.
Classes used: True (active), False (inactive)

N#Cc1nc(CCN2C(=O)c3ccccc3C2=O)oc1N : False
CC1OC(OC2CC(O)(C(=O)CO)Cc3c(O)c4c(c(O)c32)C(=O)c2ccccc2C4=O)CC(N)C1O (stereo not given) : True
CCCCCCCCC#CCCCCCCC(F)C(=O)O (stereo not given) : False
COC(=O)/C=C/C1(O)C=CC(=O)C=C1 : False
CN(C)c1ccc(/C=C(\NC(=O)c2ccccc2)C2NC(Cc3c[nH]c4ccccc34)C(=O)O2)cc1 (stereo not given) : False
CN1C(=O)C2C(C1=O)C1(O)c3ccccc3C2(N)c2ccccc21 (stereo not given) : False
CC(C)(C)OC(=O)C1C(=O)NC(=O)CC1C(COCc1ccccc1)OCc1ccccc1 (stereo not given) : False
O=C1CCCC1CC(CN1CCOCC1)Sc1nnnn1-c1ccccc1 (stereo not given) : False
COc1ccc(CNc2cc(=O)n(C)c(=O)[nH]2)cc1 : False
O=C(NCc1ccccc1)C1C(=O)C(=O)N(Cc2ccccc2)C1=O (stereo not given) : False
C(=C\Nc1ccc(-c2ccccc2)cc1)/C=N/c1ccc(-c2ccccc2)cc1 : False
Cc1csc2c(P(=O)(OC(C)C)OC(C)C)c(-c3ccccc3)cn12 : False
O=C(O)c1cc2ccccc2c2c1C(=O)c1ccccc1-2 : False
COC(=O)C(=O)C(/C(=N/N)C(=O)Nc1ccccc1C(N)=O)c1nc2ccc([N+](=O)[O-])cc2nc1O (stereo not given) : False
COc1ccc(C2C(Cl)C(=O)N2NC(=O)c2ccc(NC(C)=O)cc2)cc1 (stereo not given) : False

###

Measured GI50, listed per entry for reference.
system: OVCAR-3; experiment: NCI tumour cell line growth inhibition, 48 h
Calls of active or inactive are those of the source. Rule as the data show it: active = GI50 up to about 1.1 µM and inactive = higher.
ASSAY_METRIC: GI50

O=C(NCc1ccccc1)C1C(=O)C(=O)N(Cc2ccccc2)C1=O (stereo not drawn) : > 100 µM (inactive)
OCCCCCNc1cc(O)nc(O)n1 : > 100 µM (inactive)
COc1ccc(/C=C(\C#N)c2ccccn2)cc1OC : 86.1 µM (inactive)
COc1ccc(C2SCC(=O)N2NC(=O)C(C)Oc2ccc(Cl)cc2Cl)cc1 (stereo not drawn) : 66.2 µM (inactive)
CCOC(=O)Cc1nc2c(O)ncnc2n1C1OC(COC(C)=O)C(OC(C)=O)C1OC(C)=O (stereo not drawn) : > 100 µM (inactive)
Nc1cc2ncnc(Nc3cccc(Br)c3)c2cn1 : 15.8 µM (inactive)
COC(=O)C(c1n[nH]c2ccccc12)C(C(=O)OC)c1n[nH]c2ccccc12 (stereo not drawn) : 41.8 µM (inactive)
O=Cc1cccc2c1Oc1c(cccc1C(=O)O)S2 : 33.3 µM (inactive)
CC(C)NC(=O)OCc1nnn2c1C(OC(=O)NC(C)C)CC2 (stereo not drawn) : > 100 µM (inactive)
O=C(O)c1c(Cl)c(Cl)c(Cl)c(Cl)c1C(=O)Nc1ccc2cn[nH]c2c1 : 65.2 µM (inactive)
CC(C)N(C(=O)C12C3C4C5(C#N)C3C1(C#N)C5C42I)C(C)C (stereo not drawn) : > 100 µM (inactive)
CS(=O)(=O)N(N(CCCl)S(=O)(=O)c1ccccc1)S(C)(=O)=O : > 100 µM (inactive)
Nc1ccc(C(c2ccccc2)(c2ccccc2)c2ccccc2)cc1 : 64.6 µM (inactive)

###

system: MDA-MB-435; experiment: NCI tumour cell line growth inhibition, 48 h
Active and inactive are the calls of the source. Cut-off read from the data, not from the text of the source: active = GI50 up to about 1.1 µM and inactive = higher.
Possible outcomes: active, inactive

COC(=O)/C=C(\CC(=O)OC)n1nnnc1[C@@H]1C[C@H](COC(c2ccccc2)(c2ccccc2)c2ccccc2)[C@H]2OC(C)(C)O[C@H]21 : inactive
CC(=O)Nc1ccc2nc(-c3cccc(F)c3)cc(O)c2c1 : inactive
COc1ccc(C2SCC(=O)N2NC(=O)C(C)Oc2ccc(Cl)cc2Cl)cc1 (configuration not stated) : inactive
Cc1c2c(C(N)=O)nccc2c(C)c2c1c1ccccc1n2Cc1ccccc1 : inactive
CCC(c1nc2ccccc2c(=O)n1NC(=O)C(C)(C)C)C1(O)CCCCC1 (configuration not stated) : inactive
O=C(OCc1ccccc1)N1CCNCCN(C(=O)OCc2ccccc2)CCNCC1 : inactive
S=C(N/N=C(/c1ccccc1)c1ccccn1)Nc1ccccc1Cl : active

###

system: HT-29; experiment: NCI tumour cell line growth inhibition, 48 h
Activity calls are given as the source filed them. No stated cut-off is given here; in the data, active = GI50 up to about 1.1 µM and inactive = higher. Non-standard residues stand in square brackets, D forms with d. Residues, ends and D or L forms follow the SMILES beside them. ξ: configuration not given here. *: point of attachment. NMeY = CN[C@@H](Cc1ccc(O)cc1)C(=O)O; Cbz = O=C(OCc1ccccc1)*; ξA = CC(N)C(=O)O
Outcome codes: 1.0 for active, 0.0 for inactive

Cc1c(Cl)ccc2c1NC(=O)C2(O)CC(=O)c1ccc(Cl)cc1Cl (configuration not stated) : 0.0
Cc1cn([C@H]2C[C@@H](N3C(=O)c4ccccc4C3=O)[C@@H](CO[Si](C)(C)C(C)(C)C)O2)c(=O)[nH]c1=O : 0.0
COc1ccc([C@H](NC(=O)c2ccccc2)[C@@H](O)C(=O)O[C@H]2C[C@@]3(O)C(OC(=O)c4ccccc4)C4[C@](C)(C(=O)[C@H](OC(C)=O)C(=C2C)C3(C)C)[C@@H](O)C[C@H]2OC[C@@]42OC(C)=O)cc1 (some centres not stated) : 1.0
COC(=O)/C=C(\CC(=O)OC)n1nnnc1[C@@H]1C[C@H](COC(c2ccccc2)(c2ccccc2)c2ccccc2)[C@H]2OC(C)(C)O[C@H]21 : 0.0
Nc1nc2c(ncn2CCOC(c2ccccc2)P(=O)(O)O)c(=O)[nH]1 (configuration not stated) : 0.0
COc1ccc(C[C@@H](C(=O)NCC(N)=O)N(C)C(=O)[C@@H]2CCCN2C(=O)[C@H](CC(C)C)NC(=O)C(C)NC(=O)OCc2ccccc2)cc1 (some centres not stated) (Cbz-[ξA]LP[NMeY](Me)G-NH2) : 0.0
O=C(Cc1nc2ccc(C(=O)c3ccccc3)cc2nc1O)C(=O)Nc1ccccc1[N+](=O)[O-] : 0.0
COc1ccc(/C=c2/[nH]c(=O)/c(=C\c3ccc(OCc4ccccc4)cn3)[nH]c2=O)cc1 : 0.0
Oc1nc2c(c(-c3ccc(Br)cc3)n1)COC/C2=C\c1ccc(Br)cc1 : 0.0
Cc1cccc(C(C)(C)C)c1NC(=O)CC1C(=O)Nc2ccccc2S1(=O)=O (configuration not stated) : 0.0
CCCCCCCCCCCCCCCCNC(=O)/C(O)=C/C(=O)c1ccc(C)cc1 : 0.0
CCCCCCCCCCCCCCCCNc1ccn(C2CC(O)C(COC(c3ccccc3)(c3ccccc3)c3ccc(OC)cc3)O2)c(=O)n1 (configuration not stated) : 0.0

###

GI50 values for the compounds below.
test system: SK-MEL-2; assay: NCI tumour cell line growth inhibition, 48 h
Calls of active or inactive are those of the source. No stated cut-off is given here; in the data, active = GI50 up to about 1.1 µM and inactive = higher.
ASSAY_METRIC: GI50

COc1ccc2c(c1)CN1CCc3c(cc(OC)c(OC)c3OC)C1C2 (centres undefined) : > 100 µM (inactive)
O=C(OC[C@H]1C[C@H]2C(=O)OCCC[C@H]2O1)c1ccccc1 : > 100 µM (inactive)
COC(=O)/C=C/C1(O)C=CC(=O)C=C1 : 6.32 µM (inactive)
CN(C(=O)C12C3C4C1C1C2C3C41C(=O)O)C(C)(C)C (centres undefined) : > 100 µM (inactive)
COc1ccc(/C=C(\C#N)c2ccccn2)cc1OC : 51.2 µM (inactive)
O=C(CCN1CCCC1)c1ccc(Oc2ccc(F)cc2)cc1 : > 100 µM (inactive)
Cc1nc2cccc(F)c2c(=O)n1-c1nnc(C(F)(F)F)s1 : > 10 µM (inactive)
O=C(N/N=C\c1cccs1)c1ccncc1 : > 100 µM (inactive)
Cc1ccsc1/C=N/Nc1cnccn1 : > 100 µM (inactive)

###

tested on: OVCAR-8; assay: NCI tumour cell line growth inhibition, 48 h
Calls of active or inactive are those of the source. No stated cut-off is given here; in the data, active = GI50 up to about 1.1 µM and inactive = higher. Non-standard residues stand in square brackets, D forms with d. Residues, ends and D or L forms follow the SMILES beside them. Peptide text beside a SMILES is read from it. * marks the point of attachment. ξ: configuration not given here. *: point of attachment. NMeY = CN[C@@H](Cc1ccc(O)cc1)C(=O)O; X27 = Clc1c(Cl)c(Cl)c(O*)c(Cl)c1Cl; Cbz = O=C(OCc1ccccc1)*; Boc = CC(C)(C)OC(=O)*; OBn = c1ccc(CO*)cc1; Bn = c1ccc(C*)cc1; ξA = CC(N)C(=O)O
ASSAY_METRIC: GI50

COc1ccc(/C=c2/[nH]c(=O)/c(=C\c3ccc(OCc4ccccc4)cn3)[nH]c2=O)cc1 : 98.2 µM (inactive)
CC(C)CC(NC(=O)C(CCC(=O)OCc1ccccc1)NC(=O)OC(C)(C)C)C(=O)NC(COCc1ccccc1)C(=O)NC(Cc1ccccc1)C(=O)Oc1c(Cl)c(Cl)c(Cl)c(Cl)c1Cl (stereo unspecified) (Boc-E(OBn)LS(Bn)F-X27; configuration not given here) : 27 µM (inactive)
CCCCCCCCCCCCCCCC(=O)NCC(OCC)OCC : > 100 µM (inactive)
Cc1cc2c(cc1-c1cc3c(cc1C)C(C(C)C)=C(O)C(=O)/C3=C\Nc1ccccn1)/C(=C/Nc1ccccn1)C(=O)C(O)=C2C(C)C : 29 µM (inactive)
CCOc1ccc(N/C(=C(/C(Cl)=C(/Cl)N(CC)CC)[N+](=O)[O-])n2nnc3ccccc32)cc1 : 16.2 µM (inactive)
COc1ccc(C[C@@H](C(=O)NCC(N)=O)N(C)C(=O)[C@@H]2CCCN2C(=O)[C@H](CC(C)C)NC(=O)C(C)NC(=O)OCc2ccccc2)cc1 (stereo partly specified) (Cbz-[ξA]LP[NMeY](Me)G-NH2) : > 100 µM (inactive)
COC(=O)C(Cc1cc(OC)c(OC)c(OC)c1)(NC(=O)c1ccccc1)P(=O)(OC)OC (stereo unspecified) : > 100 µM (inactive)
Clc1ccc(CCN[C@H]2CCCC[C@H]2N2CCCC2)cc1Cl : 26.3 µM (inactive)
COc1cc2c3c(c1OC)-c1cc4c(cc1CC3(C#N)N(C(=O)c1ccccc1)CC2)OCO4 (stereo unspecified) : 20.7 µM (inactive)
CCOC(=O)c1cc(C2(O)CCN(Cc3ccccc3)C2=O)c(-c2cc(C)no2)[nH]1 (stereo unspecified) : 37.3 µM (inactive)
Nc1cc2ncnc(Nc3cccc(Br)c3)c2cn1 : 36.1 µM (inactive)
Cc1ccc([N+](=O)[O-])c2c(NCCCN(C)C)ccnc12 : 98.4 µM (inactive)
CC1(C)OCC2OC3([C@H]4OC(C)(C)O[C@@H]4CO)OC(C)(C)OC3C2O1 (stereo partly specified) : > 100 µM (inactive)
O=c1[nH]c2nc[nH]c2c(=O)n1C1CCCCC1 : > 100 µM (inactive)
C=C(CO[Si](C)(C)C(C)(C)C)C(C)=O : 18.8 µM (inactive)
Cc1cn([C@H]2C[C@@H](N3C(=O)c4ccccc4C3=O)[C@@H](CO[Si](C)(C)C(C)(C)C)O2)c(=O)[nH]c1=O : 32.5 µM (inactive)
